This section lists MIC readings for Saccharomyces cerevisiae.

{"columns": ["molecule", "testedSystem", "MIC"],
 "data": [
  ["CCCCCCCCCCCN1CCCCC1 [Compound 7, 1-undecylpiperidine, reference compound]", "Saccharomyces cerevisiae", "1.75 µg/mL"],
  ["CCCCCCCCCCCN1CCC[C@@H]2CCCC[C@H]21 (racemic) [Compound 5c]", "Saccharomyces cerevisiae", "0.25 µg/mL"],
  ["CCCCCCCCCCCN1CC[C@H]2CCCC[C@@H]2C1 (relative stereo) [C, N-n-undecyl-trans-decahydroisoquinoline, reference compound]", "Saccharomyces cerevisiae", "0.1 µg/mL"],
  ["CCCCCCCCCN1CCC[C@@H]2CCCC[C@H]21 (racemic) [Compound 5a]", "Saccharomyces cerevisiae", "2.5 µg/mL"],
  ["CCCCCCCCCCCCN1CCC[C@@H]2CCCC[C@H]21 (racemic) [Compound 5d]", "Saccharomyces cerevisiae", "2.5 µg/mL"],
  ["CCCCCCCCCCCN1CCN(C)CC1 [Compound 8b, 1-methyl-4-undecylpiperazine, reference compound]", "Saccharomyces cerevisiae", "50 µg/mL"],
  ["CCCCCCCCCCN1CCNCC1 [Compound 8a, 1-decylpiperazine, reference compound]", "Saccharomyces cerevisiae", "5 µg/mL"],
  ["CCCCCCCCCCN1CCC[C@@H]2CCCC[C@H]21 (racemic) [Compound 5b]", "Saccharomyces cerevisiae", "1 µg/mL"]
]}

----------
Structures can show the parent of a compound that is named as a salt.
Documented melting point across a set of compounds

{"columns": ["compound", "melting point [°C]"],
 "data": [
  ["CCCCCCCCCCCN1CCC[C@@H]2CCCC[C@H]21 (racemic) (as salt: hydrochloride) [Compound 5c]", 119],
  ["CCCCCCCCCCCCN1CCCc2ccccc21.Cl [Compound 3d]", 49],
  ["CCCCCCCCCCCC(=O)N1CCCc2ccccc21 [Compound 6, N-Dodecanoyl-1,2,3,4-tetrahydroquinoline]", 37],
  ["CCCCCCCCCN1CCCc2ccccc21.Cl [Compound 3a]", 65],
  ["CCCCCCCCCCCN1CCCc2ccccc21.Cl [Compound 3c]", 52]
]}

----------
Documented zone of inhibition at 50 µg/disc across a set of compounds
System: Streptococcus entericus (DSZM-Nr. 14446)
Test: Agar diffusion assay
Assay type: cell-based
Conditions: S. entericus, GI = growth inhibition, read-out: diameter of zones of total inhibition
parameter: zone of inhibition at 50 µg/disc (mm)

{"columns": ["compound", "parameter", "unitSpec", "resultNumber"],
 "data": [
  ["CN(C)[C@@H]1C(O)=C(C(N)=O)C(=O)[C@@]2(O)C(O)=C3C(=O)c4c(O)cccc4[C@@](C)(O)[C@H]3C[C@@H]12 [tetracycline, reference compound]", "zone of inhibition at 50 µg/disc", "mm", 10],
  ["CCCCCCCCCCN1CCC[C@@H]2CCCC[C@H]21 (racemic) [Compound 4b, (±)-trans-1-Decyldecahydroquinoline]", "zone of inhibition at 50 µg/disc", "mm", 22],
  ["CCCCCCCCCCCN1CCN(C)CC1 [Compound 8b, 1-methyl-4-undecylpiperazine, reference compound]", "zone of inhibition at 50 µg/disc", "mm", 15],
  ["CCCCCCCCCN1CCC[C@@H]2CCCC[C@H]21 (racemic) [Compound 4a, (±)-trans-1-Nonyldecahydroquinoline]", "zone of inhibition at 50 µg/disc", "mm", 20],
  ["CCCCCCCCCCCC(=O)N1CCCc2ccccc21 [Compound 6, N-Dodecanoyl-1,2,3,4-tetrahydroquinoline]", "zone of inhibition at 50 µg/disc", "mm", 0],
  ["CCCCCCCCCCCN1CCC[C@@H]2CCCC[C@H]21 (racemic) [Compound 4c, (±)-trans-1-Undecyldecahydroquinoline]", "zone of inhibition at 50 µg/disc", "mm", 20],
  ["CCCCCCCCCCCCN1CCCc2ccccc21 [Compound 2d, 1-Dodecyl-1,2,3,4-tetrahydroquinoline]", "zone of inhibition at 50 µg/disc", "mm", 0],
  ["CCCCCCCCCCCCN1CCC[C@@H]2CCCC[C@H]21 (racemic) [Compound 4d, (±)-trans-1-Dodecyldecahydroquinoline]", "zone of inhibition at 50 µg/disc", "mm", 12],
  ["CCCCCCCCCCCN1CCCc2ccccc21 [Compound 2c, 1-Undecyl-1,2,3,4-tetrahydroquinoline]", "zone of inhibition at 50 µg/disc", "mm", 0]
]}

----------
Documented zone of inhibition at 50 µg/disc across a set of compounds
Test system: Streptococcus entericus (DSZM-Nr. 14446)
Assay: Agar diffusion assay
Type: cell-based
Details: S. entericus, GI = growth inhibition, read-out: diameter of zones of total inhibition
parameter: zone of inhibition at 50 µg/disc (mm)

{"columns": ["compound", "parameter", "resultNumber"],
 "data": [
  ["CCCCCCCCCCCN1CCCCC1 [Compound 7, 1-undecylpiperidine, reference compound]", "zone of inhibition at 50 µg/disc", 17],
  ["CCCCCCCCCCN1CCCc2ccccc21 [Compound 2b, 1-Decyl-1,2,3,4-tetrahydroquinoline]", "zone of inhibition at 50 µg/disc", 0],
  ["CCCCCCCCCN1CCCc2ccccc21 [Compound 2a, 1-Nonyl-1,2,3,4-tetrahydroquinoline]", "zone of inhibition at 50 µg/disc", 0],
  ["CCCCCCCCCCN1CCNCC1 [Compound 8a, 1-decylpiperazine, reference compound]", "zone of inhibition at 50 µg/disc", 17]
]}

----------
Documented zone of inhibition at 50 µg/disc across a set of compounds
Test system: Candida glabrata (DSMZ-Nr.11226)
Experiment: Agar diffusion assay
Format: cell-based
Conditions: Nakaseomyces glabratus, C. glabrata, GI = growth inhibition, read-out: diameter of zones of total inhibition
parameter: zone of inhibition at 50 µg/disc (mm)

{"columns": ["compound", "resultNumber"],
 "data": [
  ["CCCCCCCCCCN1CCCc2ccccc21 [Compound 2b, 1-Decyl-1,2,3,4-tetrahydroquinoline]", 0],
  ["CCCCCCCCCCCC(=O)N1CCCc2ccccc21 [Compound 6, N-Dodecanoyl-1,2,3,4-tetrahydroquinoline]", 0],
  ["CCCCCCCCCCCCN1CCC[C@@H]2CCCC[C@H]21 (racemic) [Compound 4d, (±)-trans-1-Dodecyldecahydroquinoline]", 9],
  ["Clc1ccccc1C(c1ccccc1)(c1ccccc1)n1ccnc1 [clotrimazole, reference compound]", 13],
  ["CCCCCCCCCCCN1CCCCC1 [Compound 7, 1-undecylpiperidine, reference compound]", 8],
  ["CCCCCCCCCCN1CCNCC1 [Compound 8a, 1-decylpiperazine, reference compound]", 8],
  ["CCCCCCCCCCCCN1CCCc2ccccc21 [Compound 2d, 1-Dodecyl-1,2,3,4-tetrahydroquinoline]", 0]
]}

These data points were gathered from paper PMC4727778.
